- System: PLN cells from B6C3F1 mice
- ASSAY_SUMMARY: In vitro proliferation (3H-TdR) of PLN cells from immunized B6C3 F1 mice
- Format: in vivo
- Parameters: key: −: cpm values are corrected and categorized according to unrelated antigen response in vitro.; •: Not determined.; +: cpm values are corrected and categorized according to unrelated antigen response in vitro.; ++: cpm values are corrected and categorized according to unrelated antigen response in vitro.; +++: cpm values are corrected and categorized according to unrelated antigen response in vitro.; ++++: cpm values are corrected and categorized according to unrelated antigen response in vitro
- MEASUREMENT_PARAMETERS: in vitro antigen: GP 160
ENDPOINT_NAME: In Vitro Proliferation of PLN Cells from B6C3F1, GP 160

**Query** What does the record list as In Vitro Proliferation of PLN Cells from B6C3F1, GP 160 for CRIKQIINMWQGVGKAMYA [Peptide 65, gp160 aa 417-435; polymeric form of the T-helper cell peptide] ?
**Result** +

**Query** What does the record list as In Vitro Proliferation of PLN Cells from B6C3F1, GP 160 for LWDQSLKPCVKLT [Peptide 111] ?
**Result** ++

**Query** What does the record list as In Vitro Proliferation of PLN Cells from B6C3F1, GP 160 for AHKVWATHACV [Peptide 106] ?
**Result** +

**Query** What does the record list as In Vitro Proliferation of PLN Cells from B6C3F1, GP 160 for VYYGVPVWKEA [Peptide 104] ?
**Result** ++
